# credit: patent US20160185837A1

system.under.test: rat GLP-1 receptor (rat) (UniProt P32301)
Sequence (P32301 22-463): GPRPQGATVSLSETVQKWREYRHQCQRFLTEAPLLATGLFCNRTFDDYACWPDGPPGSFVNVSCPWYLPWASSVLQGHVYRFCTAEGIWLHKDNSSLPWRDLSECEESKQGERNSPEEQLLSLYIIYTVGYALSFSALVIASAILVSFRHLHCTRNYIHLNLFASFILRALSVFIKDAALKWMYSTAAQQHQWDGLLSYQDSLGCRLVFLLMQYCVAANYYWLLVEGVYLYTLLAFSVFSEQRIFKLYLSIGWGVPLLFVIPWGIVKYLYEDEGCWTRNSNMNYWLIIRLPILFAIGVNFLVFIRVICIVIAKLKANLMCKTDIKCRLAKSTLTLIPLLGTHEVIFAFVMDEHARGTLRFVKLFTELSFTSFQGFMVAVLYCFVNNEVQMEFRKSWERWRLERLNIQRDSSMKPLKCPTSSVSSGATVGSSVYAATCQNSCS
assay.notes: cell-based or functional assay
recorded.metric: cAMP EC50 (nM)
All answers are understood in nM, so give the number only.

Tell me the measured cAMP EC50 of IP308 (Fc fusion) YSEGTFISDYSIALAAAAAKDFVNWLLAGGGGGGGSGGGGSGGGGSGGGGSATHTCPPC , please.
700

Try IP250 (Fc fusion) YSEGTFTSDVSIAMDRQAIDEFIAWLLKGGAAAGGSGSTASSGSGSATGGGGAATHTCPPCPAPEF next.
2.2

Try IP223 (Fc fusion) YSEGTFTSDVSSYMEEEAIDEFIAWLLKGGAAAGGSGSTASSGSGSATGGGGAATHTCPPCPAPEF next.
18
